Target: T1, human DLL3 (ACRO, DLL3-H52H4) (human, UniProt Q9NYJ7 27-492)
T1 construct: Bought
T1 sequence: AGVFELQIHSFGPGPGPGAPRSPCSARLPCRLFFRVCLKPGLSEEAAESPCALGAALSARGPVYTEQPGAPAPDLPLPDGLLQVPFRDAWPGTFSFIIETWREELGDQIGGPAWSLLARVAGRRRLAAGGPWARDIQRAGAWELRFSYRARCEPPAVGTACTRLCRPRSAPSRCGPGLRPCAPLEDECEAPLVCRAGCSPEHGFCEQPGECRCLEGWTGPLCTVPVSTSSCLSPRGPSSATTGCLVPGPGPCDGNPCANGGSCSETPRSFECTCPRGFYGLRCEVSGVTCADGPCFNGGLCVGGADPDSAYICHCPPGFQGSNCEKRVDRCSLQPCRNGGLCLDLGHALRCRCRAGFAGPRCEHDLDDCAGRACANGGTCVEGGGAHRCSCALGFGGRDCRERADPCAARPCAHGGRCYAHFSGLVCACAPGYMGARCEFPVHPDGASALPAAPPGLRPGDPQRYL
Assay: SPR Biacore 8K, Ab captured on Protein A
Could you please report measured Kd for the items listed next?
Just the number in nM, nothing appended.

input: Specify reported Kd for the binder shown: hu110L2H2 (antibody, human IgG1, kappa, V domains shown) VH: EVQLVQSGAEVKKPGASVKVSCKTSGYTFTDYYMNWVRQAPGQSLEWMGIINPYNGGTSYTQKFKGRVTITVDKSASTAYMELSSLRSEDTAVYYCARHFYDSSYLTYSTMDYWGQGTTVTVSS VL: NIVMTQSPKSLAVSLGERATINCKASENVGIFVSWYQQKPGQSPKLLIYGASNRYTGVPDRFSGSGSATDFTLTISSLQAEDVADYYCGQSHSYPLTFGQGTKLEIKR
output: 0.12

input: Provide one value: measured Kd of hu30L5H10 (antibody, human IgG1, kappa, V domains shown) VH: EVRLVQSGAEVKKPGASVKVSCKASGYTFTDYYMNWVRQSHGQSLEWMGIINPYTGDTSYNQKFRGRVTLTVDKSASTAYMELSSLRSEDTAVYYCARYHYGPHLEGYFDVWGQGTTVTVSS VL: DIQMTQSPSSLSASVGDRVTITCKASENVGYVSWYQQKPGKSPKLLIYGASNRYTGVPDRFSGSGSGTDFTLTISSLQPEDFATYYCGQSYSYPLTFGSGTKLEIKR
output: 2.05

input: Give reported Kd value for hu30L3H5 (antibody, human IgG1, kappa, V domains shown) VH: EVRLVQSGAEVKKPGASVKVSCKASGYTFTDYYMNWVRQAPGQSLEWMGIINPYTGDTSYNQKFRGRVTLTVDKSASTAYMELSSLRSEDTAVYYCARYHYGPHLEGYFDVWGQGTTVTVSS VL: DIVMTQSPKSLAVSLGERATINCKASENVGYVSWYQQKPGQSPKLLIYGASNRYTGVPDRFSGSGSATDFTLTISSLQAEDVAVYHCGQSYSYPLTFGQGTKLEIKR
output: 0.735
